From: patent US20230372448A1

I'd be grateful if you could share measured In vitro activity (%) compared with native peptide: vs GLP-1 for these entries.
Biological target: human GLP-1 receptor (human, UniProt P43220 24-463)
Assay: cell-based or functional assay
Positions of bridges follow the written chain, without caps; N, C: chain ends. Non-standard residues stand in square brackets, D forms with d. No end group written: not given here. *: point of attachment. Acetyl(2-(4-imidazolyl)) = O=C(Cc1c[nH]cn1)*; Aib = CC(C)(N)C(=O)O
Answers are plain numbers, in %.

>>> measured_number("Y[Aib]QGTFTSDYSKYLDEKRAKEFVQWLLCHHPSSGQPPPS (bridge 16-20; not fully specified) [triple agonist of SEQ ID NO: 95]")
2.1

Can you give me In vitro activity (%) compared with native peptide: vs GLP-1 for all of these, one by one?
1. {Acetyl(2-(4-imidazolyl))}-[Aib]QGTFTSDYSIAMDEIHQKDFVNWLLAQC (bridge 15-19; not fully specified) [triple agonist of SEQ ID NO: 85]
2. H[Aib]QGTFTSDVSKYLDGQAAQEFVAWLLKGC (not fully specified) [triple agonist of SEQ ID NO: 8]

stdout:
1: 4.3; 2: 14.2
